# Test system: Mycolicibacterium fortuitum
# Test description: Anti-bacterial activity tested against Mycobacterium fortuitum (ATCG 6841)
# Format: functional
Endpoint: MIC (µg/mL)
// return numeric value only (unit: µg/mL, not printed)

INSERT INTO results (molecule, measured_number) VALUES
  ('CCN1CCN(c2cc3c(cc2F)c(=O)c(C(=O)O)cn3C(C)(C)C)CC1', 0.13),
  ('NC1CCN(c2cc3c(cc2F)c(=O)c(C(=O)O)cn3C2CCC2)C1 (stereo not given)', 1),
  ('CCC1CN(c2cc3c(cc2F)c(=O)c(C(=O)O)cn3C2CC2)CCN1 (stereo not given)', 0.13),
  ('CCn1cc(C(=O)O)c(=O)c2cc(F)c(N3CC(C)NC(C)C3)cc21 (stereo not given)', 0.13),
  ('CNCC1CCN(c2cc3c(cc2F)c(=O)c(C(=O)O)cn3C2CC2)C1 (stereo not given)', 0.25),
  ('CCNCC1CCN(c2cc3c(cc2F)c(=O)c(C(=O)O)cn3C2CC2)C1 (stereo not given)', 0.5),
  ('O=C(O)c1cn(C2CCC2)c2cc(N3CCNCC3)c(F)cc2c1=O', 0.5),
  ('CC(C)CN1CCN(c2cc3c(cc2F)c(=O)c(C(=O)O)cn3-c2ccc(F)cc2F)CC1', 2),
  ('CC1CN(c2cc3c(cc2F)c(=O)c(C(=O)O)cn3C(C)(C)C)CCN1 (stereo not given)', 0.03),
  ('CN1CCN(c2cc3c(cc2F)c(=O)c(C(=O)O)cn3C2CC2)CC1', 0.06);

# context switch: different molecule, same MIC
MIC in this record for CC1CN(c2cc3c(cc2F)c(=O)c(C(=O)O)cn3C(C)(C)C)CC(C)N1 (stereo not given) : 0.06

###

# Tested on: Streptococcus pyogenes
# Test description: Anti-bacterial activity tested against Gram-positive SP1-1 bacterium
# Type: functional
Endpoint: MIC

Use these answered entries as a reference point.
INSERT INTO assay_data (molecule, subject_of_test, result) VALUES
  ('CCCCN1CCN(c2cc3c(cc2F)c(=O)c(C(=O)O)cn3C2CC2)CC1', 'Streptococcus pyogenes', '> 3.1 mg/L'),
  ('CC1CN(c2cc3c(cc2F)c(=O)c(C(=O)O)cn3C2CCC2)CC(C)N1 (centres undefined)', 'Streptococcus pyogenes', '> 3.1 mg/L'),
  ('CC1CN(c2cc3c(cc2F)c(=O)c(C(=O)O)cn3C2CCC2)CCN1 (centres undefined)', 'Streptococcus pyogenes', '> 3.1 mg/L'),
  ('NC1CCN(c2cc3c(cc2F)c(=O)c(C(=O)O)cn3C2CCC2)C1 (centres undefined)', 'Streptococcus pyogenes', '1.6 mg/L'),
  ('CC(C)(C)n1cc(C(=O)O)c(=O)c2cc(F)c(N3CCNCC3)cc21', 'Streptococcus pyogenes', '1.6 mg/L');

response.value for CCC1CN(c2cc3c(cc2F)c(=O)c(C(=O)O)cn3-c2ccc(F)cc2F)CCN1 (centres undefined) (field: MIC) = 0.8 mg/L

Per the records, this molecule ( CC1(CN)CCN(c2cc3c(cc2F)c(=O)c(C(=O)O)cn3C2CC2)C1 (centres undefined) ) has MIC equal to 0.05 mg/L

Memo: CC1CN(c2cc3c(cc2F)c(=O)c(C(=O)O)cn3C(C)(C)C)CC(C)N1 (centres undefined) , reported MIC: > 3.1 mg/L

# molecule CC1CN(c2cc3c(cc2F)c(=O)c(C(=O)O)cn3C(C)(C)C)CCN1 (centres undefined) ; its MIC = > 3.1 mg/L

###

Catalogue of compounds with associated MIC
# System: Streptococcus pyogenes
# Test description: Anti-bacterial activity tested against Gram-positive SP1-1 bacterium
# Format: functional

// CC1CN(c2cc3c(cc2F)c(=O)c(C(=O)O)cn3C(C)C)CC(C)N1 (stereo not drawn) : MIC value = > 3.1 µg/mL

Record CCN1CCN(c2cc3c(cc2F)c(=O)c(C(=O)O)cn3C(C)C)CC1 , field MIC: > 3.1 µg/mL

// field: MIC; key: O=C(O)c1cn(C2CCC2)c2cc(N3CCNCC3)c(F)cc2c1=O ; value = > 3.1 µg/mL

###

# Tested on: Mycolicibacterium fortuitum
# Test description: Anti-bacterial activity tested against Mycobacterium fortuitum (ATCG 6841)
# Format: functional
Endpoint: MIC (µg/mL)
I only need the number, in µg/mL, no unit after it.

INSERT INTO results (compound, measured_number) VALUES
  ('CC1CN(c2cc3c(cc2F)c(=O)c(C(=O)O)cn3C2CC2)CC(C)N1 (centres undefined)', 0.06),
  ('CC1CN(c2cc3c(cc2F)c(=O)c(C(=O)O)cn3C2CC2)CCN1 (centres undefined)', 0.06);

Query compound follows.
The measured MIC associated with CCn1cc(C(=O)O)c(=O)c2cc(F)c(N3CCNCC3)cc21 [NORFLOXACIN] reads 0.5

###

# Test system: Mycolicibacterium fortuitum
# Test description: Anti-bacterial activity tested against Mycobacterium fortuitum (ATCG 6841)
# Type: functional
Recorded MIC by entry

Here's what some known entries look like.
INSERT INTO results (molecule, subject_of_test, result) VALUES
  ('CC(C)(C)n1cc(C(=O)O)c(=O)c2cc(F)c(N3CCNCC3)cc21', 'Mycolicibacterium fortuitum', '< 0.03 µg/mL'),
  ('O=C(O)c1cn(-c2ccc(F)cc2F)c2cc(N3CCNCC3)c(F)cc2c1=O', 'Mycolicibacterium fortuitum', '0.25 µg/mL'),
  ('CC1(CN)CCN(c2cc3c(cc2F)c(=O)c(C(=O)O)cn3C2CC2)C1 (centres undefined)', 'Mycolicibacterium fortuitum', '< 0.03 µg/mL');

Briefly, MIC measured for CC1CN(c2cc3c(cc2F)c(=O)c(C(=O)O)cn3C(C)C)CCN1 (centres undefined) : 0.5 µg/mL

MIC for CC(C)n1cc(C(=O)O)c(=O)c2cc(F)c(N3CCC(N)C3)cc21 (centres undefined) is 1 µg/mL

###

# System: Mycolicibacterium fortuitum
# Test description: Anti-bacterial activity tested against Mycobacterium fortuitum (ATCG 6841)
# Assay type: functional
MIC overview
Give the quantity in µg/mL, number only.

Some solved cases for reference:
INSERT INTO results (compound, endpoint, measured_number) VALUES
  ('CCCCN1CCN(c2cc3c(cc2F)c(=O)c(C(=O)O)cn3-c2ccc(F)cc2F)CC1', 'MIC', 1),
  ('CCN1CCN(c2cc3c(cc2F)c(=O)c(C(=O)O)cn3CC)CC1', 'MIC', 0.25),
  ('CC(C)N1CCN(c2cc3c(cc2F)c(=O)c(C(=O)O)cn3C2CC2)CC1', 'MIC', 0.25);

Just so you know, measured MIC for CN1CCN(c2cc3c(cc2F)c(=O)c(C(=O)O)cn3-c2ccc(F)cc2F)CC1 came out at 0.25

Item: CC1CN(c2cc3c(cc2F)c(=O)c(C(=O)O)cn3-c2ccc(F)cc2F)CC(C)N1 (centres undefined) | MIC: 0.25

###

The following molecules are listed with their measured MIC values.
# Tested on: Mycolicibacterium fortuitum
# Test description: Anti-bacterial activity tested against Mycobacterium fortuitum (ATCG 6841)
# Type: functional
// return numeric value only (unit: µg/mL, not printed)

Use these answered entries as a reference point.
INSERT INTO results (chemical_structure, measured_number) VALUES
  ('CCCCN1CCN(c2cc3c(cc2F)c(=O)c(C(=O)O)cn3C2CC2)CC1', 1),
  ('O=C(O)c1cn(C2CC2)c2cc(N3CCNCC3)c(F)cc2c1=O', 0.06),
  ('CC(C)n1cc(C(=O)O)c(=O)c2cc(F)c(N3CCNCC3)cc21', 1);

Next, consider the following molecule.
In plain terms, C[C@@H]1CN(c2c(F)c(N)c3c(=O)c(C(=O)O)cn(C4CC4)c3c2F)C[C@H](C)N1 has a documented MIC of 0.06

This collection of values is drawn from ChEMBL document CHEMBL1129477.
